Molecular target: UniProt:O76074
Assay: Human PDE-5A1 inhibition assay (fluorescence polarization, FAM-cGMP)
Type: biochemical
Conditions: human PDE5A1, 100 nM FAM-cGMP, 60 minutes room temperature
MEASURED_METRIC: IC50

Use the examples below as a reference point.
MOLECULE	MEASURED_METRIC	OBSERVED_MEASUREMENT
CCCc1nc(C)c2c(=O)[nH]c(-c3cc(N4C(=S)N(c5ccc(C#N)c(C(F)(F)F)c5F)C(=O)C4(C)C)ccc3OCC)nn12 [Compound 47]	IC50	≤ 10 nM
CCCc1nc(C)c2c(=O)[nH]c(-c3cc(N4C(=S)N(c5cnc(C#N)c(C(F)(F)F)c5)C(=O)C4(C)C)ccc3OCC)nn12 [Compound 20]	IC50	≤ 10 nM
CCCc1nn(C)c2c(=O)[nH]c(-c3cc(N4C(=S)N(c5ccc(C#N)c(C(F)(F)F)c5)C(=O)C4(C)C)ccc3OCC)nc12 [Compound 13]	IC50	> 100 nM
CCCc1nn(C)c2c(=O)[nH]c(-c3cc(S(=O)(=O)NC[C@@](C)(O)C(=O)Nc4ccc(C#N)c(C(F)(F)F)c4)ccc3OCC)nc12 [Compound 4]	IC50	10 to 100 nM
CCCc1nc(C)c2c(=O)[nH]c(-c3cc(S(=O)(=O)Nc4cnc(C#N)c(C(F)(F)F)c4)ccc3OCC)nn12 [Compound 6]	IC50	≤ 10 nM

Looking up CCCc1nn(C)c2c(=O)[nH]c(-c3cc(S(=O)(=O)Nc4ccc(C#N)c(C(F)(F)F)c4)ccc3OCC)nc12 [Compound 1] , I see its IC50 listed as ≤ 10 nM

----------
Parameter IC50: see the listing below.
Target: human PDE-5A1 (Homo sapiens (Human), UniProt O76074)
Assay: Human PDE-5A1 inhibition assay (fluorescence polarization, FAM-cGMP)
Format: biochemical
Conditions: human PDE5A1, 100 nM FAM-cGMP, 60 minutes room temperature

MOLECULE	OBSERVED_MEASUREMENT
CCCc1nc(C)c2c(=O)[nH]c(-c3cc(N4CC(=O)N(c5ccc(C#N)c(C(F)(F)F)c5)C4=S)ccc3OCC)nn12	≤ 10 nM
CCCc1nn(C)c2c(=O)[nH]c(-c3cc(SC[C@](C)(O)C(=O)Nc4ccc(C#N)c(C(F)(F)F)c4)ccc3OCC)nc12	10 to 100 nM
CCCc1nc(C)c2c(=O)[nH]c(-c3cc(S(=O)(=O)NC4CC(=O)N(c5ccc(C#N)c(C(F)(F)F)c5)C4)ccc3OCC)nn12 (stereo not drawn)	≤ 10 nM
CCCc1nn(C)c2c(=O)[nH]c(-c3cc(N4C(=S)N(c5cnc(C#N)c(C(F)(F)F)c5)C(=O)C45CCC5)ccc3OCC)nc12	> 100 nM
CCCc1nc(C)c2c(=O)[nH]c(-c3cc(S(=O)(=O)Nc4ccc(C#N)c(Cl)c4)ccc3OCC)nn12	≤ 10 nM

// sample CCCc1nn(C)c2c(=O)[nH]c(-c3cc(N4C(=S)N(c5cnc(C#N)c(C(F)(F)F)c5)C(=O)C4(C)C)ccc3OCC)nc12 , its IC50 was > 100 nM

// CCCc1nc(C)c2c(=O)[nH]c(-c3cc(NC(=S)Nc4ccc(C#N)c(C(F)(F)F)c4)ccc3OCC)nn12 : IC50 value = ≤ 10 nM

Noted for CCCc1nn(C)c2c(=O)[nH]c(-c3cc(S(=O)(=O)Nc4ccc(C#N)c(Cl)c4)ccc3OCC)nc12 : its IC50 reads ≤ 10 nM

// recorded IC50 for CCCc1nc(C)c2c(=O)[nH]c(-c3cc(S(=O)(=O)NC4CCN(c5ccc(C#N)c(C(F)(F)F)c5)CC4)ccc3OCC)nn12 : ≤ 10 nM

Lookup result for CCCc1nc(C)c2c(=O)[nH]c(-c3cc(S(=O)(=O)N[C@H]4C[C@H](C(O)C(F)(F)F)N(c5ccc(C#N)c(C(F)(F)F)c5)C4)ccc3OCC)nn12 (stereo partly drawn) ; measured IC50: ≤ 10 nM

Record CCCc1nc(C)c2c(=O)[nH]c(-c3cc(S(=O)(=O)Nc4ccc(C#N)c(C(F)(F)F)c4)ccc3OCC)nn12 . Reported IC50: ≤ 10 nM

response.value for CCCc1nc(C)c2c(=O)[nH]c(-c3cc(N4C(=S)N(c5ccc(C#N)c(C(F)(F)F)c5F)C(=O)C45CCCC5)ccc3OCC)nn12 (field: IC50) = ≤ 10 nM

Reported IC50 for CCCc1nn(C)c2c(=O)[nH]c(-c3cc(S(=O)(=O)N[C@@H](C)Cn4ccc(-c5ccc(C#N)c(Cl)c5)n4)ccc3OCC)nc12 was > 100 nM

molecule CCCc1nc(C)c2c(=O)[nH]c(-c3cc(N4C(=S)N(c5ccc(C#N)c(C(F)(F)F)c5)C(=O)C45CCCC5)ccc3OCC)nn12 , IC50 observed: ≤ 10 nM

Quick note, IC50 for CCCc1nn(C)c2c(=O)[nH]c(-c3cc(S(=O)(=O)Nc4cnc(C#N)c(C(F)(F)F)c4)ccc3OCC)nc12 landed at ≤ 10 nM
